System: MARIMO
Assay: cell viability relative to vehicle control; higher = less cytotoxic;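 note: after 48 h exposure read by CellTiter-Glo luminescence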
Settings: 10 µM; SRSF2 genotype: SRSF2 P95H/wt
Counter-ions that a name gives are not always drawn.
In this section we review reported cell viability values for a set of compounds.
Entry rule: numbers only, all in %.

// worked examples, cell viability included
Query: Please indicate cell viability recorded for O=C(Nc1ccc([N+](=O)[O-])cc1O)Nc1ccccc1Br
Result: 7.34

Query: Please indicate cell viability recorded for C[N+]1(C)[C@@H]2C[C@@H](OC(=O)C(O)(c3cccs3)c3cccs3)C[C@H]1[C@@H]1O[C@@H]12 [Tiotropium Bromide hydrate]
Result: 102

Query: Please indicate cell viability recorded for O=C(CSc1nc2c(c(=O)n1-c1ccccc1)SCC2)Nc1ccc(-c2ccccc2)cn1
Result: 100

Query: Please indicate cell viability recorded for Cn1ncc(Cl)c1-c1cc(C(=O)N[C@H](CN)Cc2ccc(F)c(F)c2)oc1Cl
Result: 64.1

Query: Please indicate cell viability recorded for Oc1cccc(O)c1O
Result: 108

Query: Please indicate cell viability recorded for CC(C)(C)C(O)/C=C/c1ccc2c(c1)OCO2 (configuration not stated)
Result: 94.5

Query: Please indicate cell viability recorded for OCCc1ccc(O)c(O)c1 [Hydroxytyrosol]
Result: 90.5

Query: Please indicate cell viability recorded for Cc1cc(O)c2c(c1)C(=O)c1cccc(O)c1C2=O
Result: 96.9

Query: Please indicate cell viability recorded for CC(C(=O)O)c1ccc(-c2ccccc2)c(F)c1 (configuration not stated)
Result: 106

Query: Please indicate cell viability recorded for CN(C)CCOc1ccc(/C(=C(/CCCl)c2ccccc2)c2ccccc2)cc1 [Toremifene Citrate (Fareston, Acapodene)]
Result: 53.7

New cases:
Query: Please indicate cell viability recorded for COCC[n+]1c2c(n(Cc3cnccn3)c1C)C(=O)c1ccccc1C2=O [YM155 (Sepantronium Bromide)]
Result: 0.69

Query: Please indicate cell viability recorded for O=C(O)CSc1nnc(Br)n1-c1ccc(C2CC2)c2ccccc12
Result: 95.1

Query: Please indicate cell viability recorded for C[C@@H]1O[C@@H](OC[C@H]2O[C@@H](Oc3cc(O)c4c(=O)cc(-c5ccc(O)cc5)oc4c3)[C@H](O[C@@H]3O[C@@H](C)[C@H](O)[C@@H](O)[C@H]3O)[C@@H](O)[C@@H]2O)[C@H](O)[C@H](O)[C@H]1O
Result: 97.1

Query: Please indicate cell viability recorded for CC(C)(C)C[C@@H]1N[C@@H](C(=O)N[C@H]2CC[C@H](O)CC2)[C@H](c2cccc(Cl)c2F)[C@]12C(=O)Nc1cc(Cl)ccc12
Result: 84.9

Query: Please indicate cell viability recorded for Cc1cccc(CC(=O)N2CCc3c2ccc(-c2cn(C)c4ncnc(N)c24)c3F)n1
Result: 74.5

Query: Please indicate cell viability recorded for c1ccc(-c2[nH]ncc2-c2ccnc3ccccc23)nc1
Result: 107

Query: Please indicate cell viability recorded for C=C1CC23CCC4C(C)(C(=O)OC5OC(CO)C(O)C(O)C5O)CCCC4(C)C2CCC1(OC1OC(CO)C(O)C(OC2OC(CO)C(O)C(O)C2O)C1OC1OC(C)C(O)C(O)C1O)C3 (configuration not stated) [Rebaudioside C]
Result: 108

====

System: K562
Assay: cell viability relative to vehicle control; higher = less cytotoxic
Conditions: 10 µM; SRSF2 genotype: SRSF2 wt/wt
Structures can show the parent of a compound that is named as a salt.
measurement_type: cell viability (%)
Entry rule: numbers only, all in %.

// worked examples, cell viability included
Query: Please indicate cell viability recorded for C#CCN[C@@H]1CCc2ccccc21 [Rasagiline mesylate]
Result: 101

Query: Please indicate cell viability recorded for Clc1ccc(C(Cn2ccnc2)OCc2ccsc2Cl)c(Cl)c1 (stereo not drawn)
Result: 71.6

Query: Please indicate cell viability recorded for COc1ccc(-c2coc3cc(O[C@@H]4O[C@H](CO)[C@@H](O)[C@H](O)[C@H]4O)ccc3c2=O)cc1O [Calycosin-7-O-beta-D-glucoside]
Result: 98.5

Query: Please indicate cell viability recorded for Nc1ccn([C@H]2CC[C@@H](CO)O2)c(=O)n1
Result: 111

Query: Please indicate cell viability recorded for CCNc1nc(Nc2cc(F)c(C(=O)N3CCOCC3)cc2OC)ncc1C(F)(F)F
Result: 99.2

Query: Please indicate cell viability recorded for CCN(CC)CC(=O)Nc1c(C)cccc1C [Lidocaine (Alphacaine)]
Result: 111

New cases:
Query: Please indicate cell viability recorded for CN(CC(=O)N(Cc1ccc(C2CCCCC2)cc1)c1ccc(C(=O)O)cc1)S(=O)(=O)c1c(F)c(F)c(F)c(F)c1F
Result: 7.31

Query: Please indicate cell viability recorded for CC1=C(C(=O)Nc2cc3cn[nH]c3cc2F)C(c2ccc(C(F)(F)F)cc2)CC(=O)N1 (stereo not drawn)
Result: 95.3

Query: Please indicate cell viability recorded for O=C(Nc1ccc(O)cc1)c1ccccc1O
Result: 98.3
